B1: CHCHD6 (parent)
chain: MYKLSSEQFHEAASKMESTIKPRR

# Variants of: B1
# procedureSummary: protein stability index of a GFP-peptide fusion (GPS, HEK-293T) (PSI 1-6); higher = more stable;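 also: lentivirally expressed fusions sorted by FACS into six bins by GFP to DsRed ratio, PSI derived from sequencing read proportions per bin multiplied by bin number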
# conditionDetails: c terminus: a fixed tail appended
Output Satisfied for protein stability index not less than 4; output Not satisfied otherwise.

{"mutationCode": "I20A", "answerLabel": "Satisfied"}
{"mutationCode": "A13G", "answerLabel": "Not satisfied"}
{"mutationCode": "Y2H", "answerLabel": "Satisfied"}
{"mutationCode": "S18D", "answerLabel": "Satisfied"}
{"mutationCode": "L4H", "answerLabel": "Not satisfied"}
{"mutationCode": "Q8H", "answerLabel": "Not satisfied"}
{"mutationCode": "L4R", "answerLabel": "Satisfied"}
{"mutationCode": "F9G", "answerLabel": "Satisfied"}
{"mutationCode": "S5Y", "answerLabel": "Not satisfied"}
{"mutationCode": "R23S", "answerLabel": "Not satisfied"}
{"mutationCode": "E17R", "answerLabel": "Not satisfied"}
{"mutationCode": "S6F", "answerLabel": "Not satisfied"}
{"mutationCode": "M16L", "answerLabel": "Not satisfied"}
{"mutationCode": "E11T", "answerLabel": "Not satisfied"}
{"mutationCode": "R24F", "answerLabel": "Not satisfied"}
{"mutationCode": "P22I", "answerLabel": "Not satisfied"}
{"mutationCode": "K3I", "answerLabel": "Not satisfied"}
{"mutationCode": "K21T", "answerLabel": "Not satisfied"}
{"mutationCode": "E7H", "answerLabel": "Not satisfied"}
{"mutationCode": "R23V", "answerLabel": "Not satisfied"}
{"mutationCode": "P22K", "answerLabel": "Not satisfied"}
{"mutationCode": "I20E", "answerLabel": "Satisfied"}
{"mutationCode": "F9K", "answerLabel": "Satisfied"}
{"mutationCode": "S6P", "answerLabel": "Not satisfied"}
{"mutationCode": "K21P", "answerLabel": "Satisfied"}
{"mutationCode": "M1Y", "answerLabel": "Not satisfied"}
{"mutationCode": "E7F", "answerLabel": "Not satisfied"}
{"mutationCode": "K21E", "answerLabel": "Satisfied"}
{"mutationCode": "R24Y", "answerLabel": "Not satisfied"}
{"mutationCode": "A13Y", "answerLabel": "Not satisfied"}
{"mutationCode": "P22N", "answerLabel": "Not satisfied"}
{"mutationCode": "I20S", "answerLabel": "Satisfied"}
{"mutationCode": "S18P", "answerLabel": "Not satisfied"}
{"mutationCode": "M16F", "answerLabel": "Not satisfied"}
{"mutationCode": "M1D", "answerLabel": "Satisfied"}
{"mutationCode": "M16V", "answerLabel": "Satisfied"}
{"mutationCode": "K21M", "answerLabel": "Not satisfied"}
{"mutationCode": "I20P", "answerLabel": "Satisfied"}
{"mutationCode": "R23F", "answerLabel": "Not satisfied"}
{"mutationCode": "T19P", "answerLabel": "Not satisfied"}
{"mutationCode": "H10W", "answerLabel": "Not satisfied"}
{"mutationCode": "I20N", "answerLabel": "Not satisfied"}
{"mutationCode": "T19S", "answerLabel": "Not satisfied"}
{"mutationCode": "S14W", "answerLabel": "Not satisfied"}
{"mutationCode": "K15Q", "answerLabel": "Satisfied"}
{"mutationCode": "E17N", "answerLabel": "Not satisfied"}
{"mutationCode": "A13S", "answerLabel": "Not satisfied"}
{"mutationCode": "M16P", "answerLabel": "Satisfied"}
{"mutationCode": "R24L", "answerLabel": "Not satisfied"}
{"mutationCode": "S18W", "answerLabel": "Not satisfied"}
{"mutationCode": "S18Y", "answerLabel": "Not satisfied"}
{"mutationCode": "E17A", "answerLabel": "Not satisfied"}
{"mutationCode": "L4M", "answerLabel": "Satisfied"}
{"mutationCode": "E17Y", "answerLabel": "Not satisfied"}
{"mutationCode": "E11L", "answerLabel": "Not satisfied"}
{"mutationCode": "E11C", "answerLabel": "Not satisfied"}
{"mutationCode": "R24D", "answerLabel": "Satisfied"}
{"mutationCode": "A12E", "answerLabel": "Satisfied"}
{"mutationCode": "P22G", "answerLabel": "Not satisfied"}
{"mutationCode": "A13K", "answerLabel": "Not satisfied"}
{"mutationCode": "S14R", "answerLabel": "Not satisfied"}
{"mutationCode": "S14P", "answerLabel": "Not satisfied"}
{"mutationCode": "K21G", "answerLabel": "Not satisfied"}
{"mutationCode": "H10G", "answerLabel": "Satisfied"}
{"mutationCode": "T19Y", "answerLabel": "Not satisfied"}
{"mutationCode": "M1K", "answerLabel": "Satisfied"}
{"mutationCode": "S18V", "answerLabel": "Not satisfied"}
{"mutationCode": "Q8M", "answerLabel": "Not satisfied"}
{"mutationCode": "E17I", "answerLabel": "Not satisfied"}
{"mutationCode": "S18F", "answerLabel": "Not satisfied"}
{"mutationCode": "S14I", "answerLabel": "Not satisfied"}
{"mutationCode": "R24H", "answerLabel": "Not satisfied"}
{"mutationCode": "P22F", "answerLabel": "Not satisfied"}
{"mutationCode": "K3S", "answerLabel": "Not satisfied"}
